Molecular target: γ-secretase, Aβ(1-42) production, SH-SY5Y neuroblastoma cells overexpressing SPA4CT (Homo sapiens, UniProt P49768)
Construct: Human SH-SY5Y neuroblastoma cells overexpressing the direct γ-secretase substrate SPA4CT; endogenous in cells
Assay: Cell-Based γ-Secretase Assay, Aβ(42) detection
Details: overnight incubation, read-out: IC50 values for Aβ(1-42) inhibition
For each record, write down the corresponding IC50.

Sample records with IC50:
- smiles: "CCN(CC)c1ccc(Nc2ccnc(N3CCC(n4ccnc4)CC3)n2)c(C)c1"
  assayResult: "3 to 6 µM"
- smiles: "Cc1ccc(C(C)(C)C)cc1Nc1nc(N2CCC(n3ccnn3)CC2)ncc1F"
  assayResult: "3 to 6 µM"
- smiles: "Cc1ccc(C(C)(C)C)cc1Nc1nc(N2CCC(n3ccnc3)CC2)ncc1F"
  assayResult: "3 to 6 µM"

// input: 4 compounds below; output: IC50 for each
1. Cc1ccc(C(C)(C)C)cc1Nc1ccnc(N2CCC(n3ccnn3)CC2)n1
2. CCOc1cc(C)c(Nc2nc(N3CCC(n4ccnn4)CC3)ncc2Cl)cc1C(C)C
3. CCOc1cc(C)c(Nc2nc(N3CCC(n4ccnc4)CC3)ncc2F)cc1C(C)C
4. CCOc1cc(C)c(Nc2cc(C(=O)OC)nc(N3CCC(n4ccnc4)CC3)n2)cc1C(C)C

Reply:
0.5 to 1.5 µM
1.5 to 3 µM
0.5 to 1.5 µM
< 0.5 µM

---

Target: γ-secretase, Aβ(1-42) production, SH-SY5Y neuroblastoma cells overexpressing SPA4CT (Homo sapiens)
Construct: Human SH-SY5Y neuroblastoma cells overexpressing the direct γ-secretase substrate SPA4CT; endogenous in cells
Test: Cell-Based γ-Secretase Assay, Aβ(42) detection
Conditions: overnight incubation, read-out: IC50 values for Aβ(1-42) inhibition
pIC50: −log10 of the molar value.
observationType: pIC50

Sample records with pIC50:
- smiles: "CCOc1cc(C)c(Nc2ccnc(N3CCC(n4ccnc4)CC3)n2)cc1C(C)C"
  observationType: "pIC50"
  assayResult: "> 6.30"
- smiles: "CCOc1cc(C)c(Nc2nc(N3CCC(n4cc(C)nn4)CC3)ncc2Cl)cc1C(C)C"
  observationType: "pIC50"
  assayResult: "5.52 to 5.82"
- smiles: "Cc1ccc(C(C)(C)C)cc1Nc1ccnc(N2CCC(n3ccnc3)CC2)n1"
  observationType: "pIC50"
  assayResult: "5.82 to 6.30"
- smiles: "CCOc1cc(C)c(Nc2cc(CO)nc(N3CCC(n4ccnc4)CC3)n2)cc1C(C)C"
  observationType: "pIC50"
  assayResult: "> 6.30"
- smiles: "CCN(CC)c1ccc(Nc2ccnc(N3CCC(c4nnc(-c5ccccc5)o4)CC3)n2)c(C)c1"
  observationType: "pIC50"
  assayResult: "5.52 to 5.82"
- smiles: "CCOc1cc(C)c(Nc2nc(N3CCC(n4ccnc4)CC3)ncc2Cl)cc1C(C)C"
  observationType: "pIC50"
  assayResult: "5.52 to 5.82"

// input: 2 compounds below; output: pIC50 for each
1. Cc1ccc(C(C)C)cc1Nc1ccnc(N2CCC(n3ccnn3)CC2)n1
2. CCOc1cc(C)c(Nc2nc(N3CCC(n4ccnn4)CC3)ncc2F)cc1C(C)C

Reply:
["5.22 to 5.52", "5.82 to 6.30"]

---

Molecular target: γ-secretase, Aβ(1-42) production, SH-SY5Y neuroblastoma cells overexpressing SPA4CT (Homo sapiens)
Construct: Human SH-SY5Y neuroblastoma cells overexpressing the direct γ-secretase substrate SPA4CT; endogenous in cells
Assay: Cell-Based γ-Secretase Assay, Aβ(42) detection
Conditions: overnight incubation, read-out: IC50 values for Aβ(1-42) inhibition
pIC50: −log10 of the molar value.
For each record, write down the corresponding pIC50.

Sample records with pIC50:
- smiles: "CCOc1cc(C)c(Nc2ccnc(N3CCC(n4ccnn4)CC3)n2)cc1C(C)C"
  pIC50: "5.82 to 6.30"
- smiles: "CCN(CC)c1ccc(Nc2ccnc(N3CCC4(CCCN4)CC3)n2)c(C)c1"
  pIC50: "5.22 to 5.52"

// input: 2 molecules below; output: pIC50 for each
1. CCN(CC)c1ccc(Nc2ccnc(N3CCC(n4ccnn4)CC3)n2)c(C)c1
2. Cc1ccc(C(C)(C)C)cc1Nc1cc(S(C)(=O)=O)nc(N2CCC(n3ccnc3)CC2)n1

Reply:
1: 5.22 to 5.52; 2: 5.22 to 5.52
